Numbers sourced from ChEMBL document CHEMBL1157528.

Assay: Metabolic stability in mouse liver microsomes assessed as half life at 10 uM
Type: ADME, Microsome
# key: entry, value: half-life at 10 µM
Quantity Measured: half-life at 10 µM (min)

[[record]]
compound = "CC(=O)O[C@H]1C[C@H]2[C@@H]([C@H](OC(C)=O)C[C@@H]3CC4(CC[C@@]32C)OOC(C)(C)OO4)[C@@H]2CC[C@H]([C@H](C)CCC(N)=O)[C@@]12C"
bound_type = ">"
observed_value = 60

[[record]]
compound = "CC(=O)O[C@H]1C[C@H]2[C@@H]([C@H](OC(C)=O)C[C@@H]3CC4(CC[C@@]32C)OOC(C)(C)OO4)[C@@H]2CC[C@H]([C@H](C)CCC(=O)N(C)C)[C@@]12C"
bound_type = "="
observed_value = 17

[[record]]
compound = "COC(=O)CNC(=O)CC[C@@H](C)[C@H]1CC[C@H]2[C@@H]3[C@H](OC(C)=O)C[C@@H]4CC5(CC[C@]4(C)[C@H]3C[C@H](OC(C)=O)[C@]12C)OOC(C)(C)OO5"
bound_type = "="
observed_value = 32

[[record]]
compound = "CC(=O)O[C@H]1C[C@H]2[C@@H]([C@H](OC(C)=O)C[C@@H]3CC4(CC[C@@]32C)OOC(C)(C)OO4)[C@@H]2CC[C@H]([C@H](C)CCC(=O)Nc3ccccc3)[C@@]12C"
bound_type = "="
observed_value = 16

[[record]]
compound = "CNC(=O)CC[C@@H](C)[C@H]1CC[C@H]2[C@@H]3[C@H](OC(C)=O)C[C@@H]4CC5(CC[C@]4(C)[C@H]3C[C@H](OC(C)=O)[C@]12C)OOC(C)(C)OO5"
bound_type = ">"
observed_value = 60


====

Test system: Plasmodium falciparum
Assay: microbe, parasite or virus in culture
Settings: W2
Description: Antimalarial activity against chloroquine and pyrimethamine-resistant Plasmodium falciparum W2
Mark each entry Condition met if its IC90 sits below 30 nM, and Condition not met for all others.

[[record]]
compound = "CC(=O)O[C@H]1C[C@H]2[C@@H]([C@H](OC(C)=O)C[C@@H]3CC4(CC[C@@]32C)OOC(C)(C)OO4)[C@@H]2CC[C@H]([C@H](C)CCC(=O)O)[C@@]12C"
group_label = "Condition not met"

[[record]]
compound = "CC(=O)O[C@H]1C[C@H]2[C@@H]([C@H](OC(C)=O)C[C@@H]3CC4(CC[C@@]32C)OOC(C)(C)OO4)[C@@H]2CC[C@H]([C@H](C)CCC(=O)NCCN(C)C)[C@@]12C"
group_label = "Condition met"

[[record]]
compound = "CNC(=O)CC[C@@H](C)[C@H]1CC[C@H]2[C@@H]3[C@H](OC(C)=O)C[C@@H]4CC5(CC[C@]4(C)[C@H]3C[C@H](OC(C)=O)[C@]12C)OOC(C)(C)OO5"
group_label = "Condition met"

[[record]]
compound = "CC(=O)O[C@H]1C[C@H]2[C@@H]([C@H](OC(C)=O)C[C@@H]3CC4(CC[C@@]32C)OOC(C)(C)OO4)[C@@H]2CC[C@H]([C@H](C)CCC(=O)N(C)C)[C@@]12C"
group_label = "Condition not met"

[[record]]
compound = "COC(=O)CC[C@@H](C)[C@H]1CC[C@H]2[C@@H]3[C@H](OC(C)=O)C[C@@H]4CC5(CC[C@]4(C)[C@H]3C[C@H](OC(C)=O)[C@]12C)OOC(C)(C)OO5"
group_label = "Condition met"

[[record]]
compound = "C[C@@H]1CC[C@H]2[C@@H](C)C(=O)O[C@@H]3O[C@@]4(C)CC[C@@H]1[C@]32OO4"
group_label = "Condition met"

